# Study Target: Chromo domain-containing protein 1 (Saccharomyces cerevisiae (strain ATCC 204508 / S288c) (Baker's yeast))
# Assay Name: ScCHD-1 Enzyme Inhibition Assay; also: in the data most compounds retested in dose-response had high values
# Format: functional
# Design: scale not given: direction of the effect not stated beside the values
# Condition: 30 µM

Molecule | Display Unit | Percent Effect
Cc1ccsc1-c1nnc(C2CCN(Cc3ccc(F)cc3)CC2)o1 | % | -15.5
CNC1CCCN(Cc2noc(C3CC3)n2)C1 (stereo not drawn) | % | 0.831
O=C(NCCN1CCCCCC1=O)c1n[nH]c(=O)c2ccccc12 | % | -3
CN(C)c1ccc(CCCNC(=O)Nc2ccc(C#N)cc2)cc1 | % | -5.31
Cc1nc(Nc2ncccn2)cc(C2CCCN2CC(C)C)n1 (stereo not drawn) | % | -1.78
Cc1cc(C)cc(OCCC(=O)N2CCCC(n3cncn3)C2)c1 (stereo not drawn) | % | 1.95
CC(NC(=O)CCC(=O)c1cccs1)c1nnc2n1CCCCC2 (stereo not drawn) | % | 2.68
COCCOCC(=O)Nc1ccc(C)cc1F | % | 2.83
CCc1n[nH]c(C2CN(C(=O)Cn3ccccc3=O)CCO2)n1 (stereo not drawn) | % | -24.2
CCn1cnnc1C1CCN(C(=O)COc2ccccc2)CC1 | % | -22.2
Cc1cccc2c1cnn2CCCNC(=O)CCCC(=O)O | % | -2.54
Cc1cc(C)c(CNC(=O)NCC(c2ccccc2)N(C)C)c(=O)[nH]1 (stereo not drawn) | % | -3.01
Cc1ccc2c(ccn2CCC(=O)O)c1 | % | 0.48
Cc1ccc(CC2CCCN2CC(=O)NCc2ccccn2)cc1 (stereo not drawn) | % | -2.14
Cc1nc[nH]c1CN1C[C@@H]2CC[C@H](C1)N(C(=O)CCNS(C)(=O)=O)C2 | % | -4.5
Cc1ccc(NC2CCN(C(=O)c3cccc(F)c3F)CC2)nn1 | % | -24.5
Cc1noc(C)c1CN1CC[C@H]2OCC[C@@H](C(=O)N3CCCO3)[C@@H]2C1 | % | -6.96
COc1c(C)cnc(CSc2nnc(C)s2)c1C | % | -14.7
CCOc1ccc(-n2nnc(C(=O)O)c2-c2ccccn2)cc1 | % | -4.17
Cc1cc(NC(=O)NCc2ccccc2OC(F)F)n(C)n1 | % | -5.23
Cc1cnn(CC2CCCN2C(=O)c2ccc3cc[nH]c3c2)c1 (stereo not drawn) | % | -8.72
CCC1=N[C@@]2(CC[C@@H]3CN(S(=O)(=O)CC(C)C)C[C@@H]32)C(=O)N1C | % | -9.12
CCOc1ccccc1Nc1nc2c(C)nn(C)c2c(=O)n1C | % | -6.44
Cn1cc(N2CCC(NC(=O)c3c(F)cccc3F)C2=O)cn1 (stereo not drawn) | % | 0.00639
c1nc(N2CCCCC2Cn2cncn2)c2ccsc2n1 (stereo not drawn) | % | -9.92
COc1ccnc(N2CCN(C(=O)CN3CCCC3=O)CC2)n1 | % | -11.5
CNc1nc(CNC(=O)Nc2cccc(F)c2)cs1 | % | 8.34
N#Cc1ccccc1CN1C[C@@H]2CC[C@H](C1)N(CC1CC1)C2=O | % | -0.908
COC(C(=O)N1CCN(c2cccc(Cl)c2)C(=O)C1)c1ccccc1 (stereo not drawn) | % | -4.32
CCCC(=O)Nc1sc(C(=O)OCC)c(C)c1C#N | % | -3.68
O=C1OCCN1CCc1nc(-c2cc3c4c(c2)CC(=O)N4CCC3)cs1 | % | -5.4
CCCn1nc2c(cc1=O)CN(Cc1nc(CCOC)no1)CC2 | % | -7.2
CCC(O)CNC(=O)C1(N(C)Cc2ccccc2)Cc2ccccc2C1 (stereo not drawn) | % | -5.97
CCOCCCNC(=O)c1cc(C)nc(N2CCCC2)n1 | % | -14
Cc1cnn(CC2CN(Cc3nccn3C)CCO2)c1 (stereo not drawn) | % | -1.23
CN1C(=O)CC(c2cnn(C)c2)C12CCN(C(=O)C1CC=CC1)CC2 (stereo not drawn) | % | 9.24
Cc1cnn(CC2CCCCN2C(=O)CN(C)C2CC2)c1 (stereo not drawn) | % | -24
c1coc(CN2CCCC3(COCCN(Cc4c[nH]nn4)C3)C2)c1 (stereo not drawn) | % | -7.03
CC(=O)Nc1nc(CN2CCCC2c2cnn(C)c2)cs1 (stereo not drawn) | % | -5.9
CC(=O)N1CCC(c2ccnc(Nc3cnccn3)n2)C1 (stereo not drawn) | % | -5.82
CCN(C(=O)CCCOc1ccccc1F)c1ccncc1 | % | -5.44
CCNC(=O)c1ccoc1CN1c2ccccc2CC1C (stereo not drawn) | % | 1.31
CN(Cc1ccccc1)CC1(O)CCCN(CC(C)(C)C)C1=O (stereo not drawn) | % | -0.279
CN(CC(=O)N1CCCC1Cn1cccn1)C1CC1 (stereo not drawn) | % | -3.87
O=S1(=O)c2ccccc2C2(CCN(Cc3ccccc3)C2)N1CC1CC1 (stereo not drawn) | % | 2.59
CC(=O)N1CC(=O)N(c2ccccc2)CC12CCN(Cc1cccs1)C2 (stereo not drawn) | % | -7.74
c1csc(-c2nc(CN3CCCC3Cn3cncn3)co2)c1 (stereo not drawn) | % | -3.71
COC(=O)c1cccn1C1CCN(C(=O)c2cc(F)ccc2F)CC1 | % | -9.49

----------
# Test system: Trypanosoma cruzi
# Assay Name: Trypanosoma cruzi phosphomannomutase and mannose-1-phosphate guanylyltransferase assay
# Type: functional
# Parameters: scale not given: direction of the effect not stated beside the values
# Condition: 10 µM
molecules and their reported Percent Effect

Molecule | Percent Effect
CN1CCN(C(=O)CC2CCN(CCc3ccccn3)CC2)CC1 | 5.58%
Cn1nc(CNC(=O)C2CC2)cc1C1CC1 | 2.27%
O=C(CCNS(=O)(=O)c1ccccc1)NCc1ccoc1 | 7.11%
CCOCCNc1nc(C2CCCC2)nc2c1cnn2C | 0.588%
Cc1cc(C(=O)N2CCCC2Cn2nc(C)cc2C)on1 (centres undefined) | 3.87%
CC(C)n1c(=O)nc2n1C(=O)N(c1ccccc1)C2 | 0.682%
NS(=O)(=O)c1ccc(NC(=O)CSc2ccc3c(c2)CCC3)cc1 | -4.69%
COc1cccc(CN2CCCC2c2c(C)nn(C)c2C)c1 (centres undefined) | 0.661%
CC(C)N1CCC(Cc2cncc(-c3ccccc3C(=O)O)n2)CC1 | -4.13%
CC(C)(O)CN1CCN(C(=O)c2sccc2C2CC2)CC1 | -2.56%
O=C(NC1CCCC1)[C@@H]1CN(Cc2nccs2)C[C@H]2OCC[C@H]21 | -1.77%
CNC(=O)NC(=O)CN1CCC(c2c[nH]c3ccc(OC)cc23)CC1 | 0.292%
Cc1c(NC(=O)NCC(C)N2CCOCC2)cccc1OC(F)F (centres undefined) | 0.391%
CN(C)C(=O)[C@@H]1CCO[C@@H]2CCN(Cc3ccccc3)C[C@@H]21 | -6.45%
CSc1ncccc1C(=O)NCc1ccc(CS(=O)(=O)NC(C)C)cc1 | -1.74%
CSCCC(=O)N1CCCC1c1ccsc1 (centres undefined) | -4.76%
CCOc1ccc(NC(=O)CN2CCN(c3nccn3C)CC2)cc1 | 7.79%
CC(CNC(=O)c1ccccc1Oc1cccnc1)N(C)C (centres undefined) | 5.41%
CN1CCN(C(=O)c2cncc(CC3CCCN(C)C3)c2)CC1 (centres undefined) | -8.3%
Cn1ccnc1CN1CCC2(COCCN(Cc3ccsc3)C2)C1 (centres undefined) | 6%
CC(=O)N1CCCC1c1nccnc1Nc1cccc(C)n1 (centres undefined) | -1.57%
O=C([C@@H]1CC[C@@H]2[C@@H](CCN2Cc2cccc(F)c2)O1)N1CCCCO1 | -3.28%
CCc1ccc(NC(=O)N2C[C@H]3C[C@H](C(=O)NC)[C@@H](C2)O3)cc1 | -0.0986%
CN(Cc1ccccc1)CC1(O)CCCN(CC(C)(C)C)C1=O (centres undefined) | 5.15%

----------
# Study Target: Tyrosyl-tRNA synthetase, putative (Trypanosoma cruzi (strain CL Brener)) (UniProt Q4DSP6)
# Sequence (whole entry): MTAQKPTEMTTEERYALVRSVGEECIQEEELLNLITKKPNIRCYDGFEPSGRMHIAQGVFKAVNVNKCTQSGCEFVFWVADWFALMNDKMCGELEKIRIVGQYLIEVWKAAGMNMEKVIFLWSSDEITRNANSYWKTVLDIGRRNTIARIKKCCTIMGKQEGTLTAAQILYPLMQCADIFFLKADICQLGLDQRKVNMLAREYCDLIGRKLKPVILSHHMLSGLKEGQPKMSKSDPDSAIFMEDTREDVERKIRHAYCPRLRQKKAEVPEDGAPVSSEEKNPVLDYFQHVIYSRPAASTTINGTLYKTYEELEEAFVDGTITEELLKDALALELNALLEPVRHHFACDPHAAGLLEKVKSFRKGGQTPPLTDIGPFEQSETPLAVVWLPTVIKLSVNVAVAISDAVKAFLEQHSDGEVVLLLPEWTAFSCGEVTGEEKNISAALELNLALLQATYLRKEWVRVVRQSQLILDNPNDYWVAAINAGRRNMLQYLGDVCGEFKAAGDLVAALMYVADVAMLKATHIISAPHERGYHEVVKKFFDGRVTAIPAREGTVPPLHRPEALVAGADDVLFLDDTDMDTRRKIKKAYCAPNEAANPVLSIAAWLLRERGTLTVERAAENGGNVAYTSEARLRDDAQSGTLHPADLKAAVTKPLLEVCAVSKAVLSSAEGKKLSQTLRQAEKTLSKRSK
# Assay Name: Trypanosoma cruzi tyrosyl tRNA synthetase (TcYRS) SOP
# Type: functional
# Set-up: scale not given: direction of the effect not stated beside the values
# Condition: 30 µM

Compound | Percent Effect / %
CS(=O)(=O)N1CCCCCC1C1CCN(c2ncccc2C#N)CC1 (stereo unspecified) | 0
O=C1CC(NCc2ccncc2)CN1Cc1cccc(F)c1 (stereo unspecified) | 2.44
O=C(Cn1ccnc1)N1C[C@@H]2CC[C@H](Oc3ccccc3Cl)[C@@H]2C1 | -1.3
CCC(=O)N1CCC(c2nnc(Cn3cccn3)n2C2CC2)CC1 | 12.8
O=C(CCc1cscn1)NS(=O)(=O)c1ccc2ccccc2c1 | 5.13
CCN(CC)CC1CN(CCc2ccccc2)Cc2nccn2C1 (stereo unspecified) | 8.64
CN(Cc1csc(-c2cccs2)n1)C(=O)CCn1ccccc1=O | 11.1
CC(NC(=O)N(C)Cc1ccc(Cl)s1)c1ccccn1 (stereo unspecified) | 12.7
Cc1ccc([C@@H]2CN(S(=O)(=O)c3cccs3)C[C@H]2N(C)C)cc1 | 13.6
Cc1ccc(NC2CCN(C(=O)COc3cccnc3)CC2)nn1 | 15.2
Cn1cnc(S(=O)(=O)NCCCN2CCCCCC2)c1Cl | 6.17
